pKi: −log10 of the molar value.
Literature pKi values, system: Tyrosine-protein kinase JAK2 (Homo sapiens).

Study these solved cases before continuing.
{"compound": "C1=C(c2ncnc3[nH]ccc23)CCC1", "measurement": "> 6.30"}
{"compound": "CCN(Cc1ccncc1)C(=O)c1cc(-c2ncnc3[nH]ccc23)c[nH]1", "measurement": "> 7.00"}

Here O=C(CCn1ccc2cnc(-c3c[nH]c4ncncc34)nc21)NCC(F)(F)F was tested on Tyrosine-protein kinase JAK2 (Homo sapiens), and its pKi came to > 6.30

Considering CCNC(=O)[C@H]1CCCN(c2ccn(-c3cc(-c4c(F)cccc4C#N)nc4c3C(=O)NC4)n2)C1 , its pKi with Tyrosine-protein kinase JAK2 (Homo sapiens) was recorded as 7.00 to 8.00

Here O=C(NCC(F)(F)F)[C@H]1CCCN1c1nc(-c2c[nH]c3ncncc23)ncc1F was tested on Tyrosine-protein kinase JAK2 (Homo sapiens), and its pKi came to > 6.30
